Listing of recorded Dmax at 3 µM by entry.
Study system: MycN (Homo sapiens)
Construct: endogenous in cells; host or cells: SK-N-BE(2)
Assay remarks: Degradation of MycN protein in SK-N-BE(2) cells, JESS/Western blot of lysates
Format: cell-based
Settings: SKNBE2, 24 h, SKNBE2 cells, 24 h, 3 μM; read-out: % Degradation of MycN (SKNBE2) 24 h, 3 μM

Answered examples (3):
Compound: CS(=O)(=O)CCNCC12CC(C1)N(c1nccc(Nc3cc(C4CCCC4)[nH]n3)n1)C2 [Compound 68]
Study system: MycN (Homo sapiens)
Dmax at 3 µM: 80 to 100%

Compound: CN1C[C@@H]2CN(c3nccc(Nc4cc(C5CC5)[nH]n4)n3)C[C@@H]2C1 [Compound 15]
Study system: MycN (Homo sapiens)
Dmax at 3 µM: 50 to 79%

Compound: NC[C@H]1CCCN(c2nccc(Nc3cc(C4CCCC4)[nH]n3)n2)C1 [Compound 108]
Study system: MycN (Homo sapiens)
Dmax at 3 µM: 50 to 79%

Would you kindly look at the next entry?
Input line: Dmax at 3 µM lookup needed for FC(F)(F)CNCC12CC(C1)N(c1nccc(Nc3cc(C4CCCC4)[nH]n3)n1)C2 [Compound 71] , thanks.
Output line: 80 to 100%

----------
Study system: MycC (Homo sapiens)
Construct: endogenous in cells; host or cells: L363
Assay remarks: Degradation of MycC protein in L363 cells, JESS/Western blot of lysates
Assay type: cell-based
Settings: L-363, 24 h, L-363 cells, 24 h, 0.5 μM; read-out: % Degradation of MycC (L-363) 24 h, 0.5 μM
Readout type: Dmax at 0.5 µM

Compound: c1cc(Nc2cc(C3CC3)[nH]n2)nc(N2C[C@H]3CNC[C@H]3C2)n1
Dmax at 0.5 µM: < 20%

Would you kindly look at the next entry?
Input line: Dmax at 0.5 µM lookup needed for CNCC1CCN(c2nccc(Nc3cc(C4CC4)[nH]n3)n2)CC1 , thanks.
Output line: < 20%

----------
Study system: MycC (Homo sapiens, UniProt P01106)
Construct: endogenous in cells; host or cells: L363
Sequence (P01106 whole entry): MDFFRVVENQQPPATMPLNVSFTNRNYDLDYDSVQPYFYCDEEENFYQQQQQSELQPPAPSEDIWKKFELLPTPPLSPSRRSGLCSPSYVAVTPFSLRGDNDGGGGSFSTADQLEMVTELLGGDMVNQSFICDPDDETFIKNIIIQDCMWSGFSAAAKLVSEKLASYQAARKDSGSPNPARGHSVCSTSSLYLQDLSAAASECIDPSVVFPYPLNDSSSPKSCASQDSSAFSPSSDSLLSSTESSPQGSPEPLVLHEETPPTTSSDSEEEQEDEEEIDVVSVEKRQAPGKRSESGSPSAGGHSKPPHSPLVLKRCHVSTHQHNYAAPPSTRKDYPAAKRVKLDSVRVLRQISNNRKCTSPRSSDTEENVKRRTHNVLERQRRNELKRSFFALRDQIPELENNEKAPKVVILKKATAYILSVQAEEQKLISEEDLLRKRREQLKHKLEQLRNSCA
Assay remarks: Degradation of MycC protein in L363 cells, JESS/Western blot of lysates
Type: cell-based
Settings: L-363, 24 h, L-363 cells, 24 h, 0.5 μM; read-out: % Degradation of MycC (L-363) 24 h, 0.5 μM
Readout type: Dmax at 0.5 µM

Answered examples (4):
Structure notation: NC[C@H]1CN(c2nccc(Nc3cc(C4CC4)[nH]n3)n2)C[C@H]1F
Study system: MycC (Homo sapiens, UniProt P01106)
Dmax at 0.5 µM: 20 to 49%

Structure notation: CN(C)[C@H]1CCN(c2nccc(Nc3cc(C4CC4)[nH]n3)n2)C1
Study system: MycC (Homo sapiens, UniProt P01106)
Dmax at 0.5 µM: 20 to 49%

Structure notation: CNCC12CC(C1)N(c1nccc(Nc3cc(C4CCC4)[nH]n3)n1)C2
Study system: MycC (Homo sapiens, UniProt P01106)
Dmax at 0.5 µM: 20 to 49%

Structure notation: NCC1CCN(c2nccc(Nc3cc(C4CC4)[nH]n3)n2)CC1
Study system: MycC (Homo sapiens, UniProt P01106)
Dmax at 0.5 µM: < 20%

Input line: Dmax at 0.5 µM lookup needed for NC[C@@H]1CCCN(c2nccc(Nc3cc(C4CC4)[nH]n3)n2)C1 , thanks.
Output line: < 20%

Input line: Dmax at 0.5 µM lookup needed for NCC12CC(C1)N(c1nccc(Nc3cc(C4CCCC4)[nH]n3)n1)C2 , thanks.
Output line: < 20%

Input line: Dmax at 0.5 µM lookup needed for CN1CC2(CCN(c3nccc(Nc4cc(C5CC5)[nH]n4)n3)C2)C1 , thanks.
Output line: < 20%

Input line: Dmax at 0.5 µM lookup needed for CN[C@H]1CCN(c2nccc(Nc3cc(C4CC4)[nH]n3)n2)C1 , thanks.
Output line: < 20%

Input line: Dmax at 0.5 µM lookup needed for FC(F)(F)CNCC12CC(C1)N(c1nccc(Nc3cc(C4CCCC4)[nH]n3)n1)C2 , thanks.
Output line: 20 to 49%

----------
Study system: MycN (Homo sapiens, UniProt P04198)
Construct: endogenous in cells; host or cells: SK-N-BE(2)
Sequence (P04198 whole entry): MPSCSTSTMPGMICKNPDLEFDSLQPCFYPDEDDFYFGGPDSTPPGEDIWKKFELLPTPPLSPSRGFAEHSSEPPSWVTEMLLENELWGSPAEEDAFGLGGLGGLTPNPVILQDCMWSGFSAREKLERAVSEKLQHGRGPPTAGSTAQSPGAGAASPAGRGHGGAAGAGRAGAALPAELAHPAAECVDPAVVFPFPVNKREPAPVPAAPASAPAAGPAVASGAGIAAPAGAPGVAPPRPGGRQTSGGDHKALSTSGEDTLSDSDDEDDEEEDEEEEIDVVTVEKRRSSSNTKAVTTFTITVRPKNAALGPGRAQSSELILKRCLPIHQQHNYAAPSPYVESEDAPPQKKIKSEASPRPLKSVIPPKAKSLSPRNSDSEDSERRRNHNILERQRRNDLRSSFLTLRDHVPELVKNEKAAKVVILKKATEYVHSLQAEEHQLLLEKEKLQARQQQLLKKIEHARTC
Assay remarks: Degradation of MycN protein in SK-N-BE(2) cells, JESS/Western blot of lysates
Format: cell-based
Settings: SKNBE2, 24 h, read-out: % Degradation of MycN (SKNBE2) 24 h, 1 μM
Readout type: Dmax at 1 µM

Answered examples (2):
Compound: NCC12CC(C1)N(c1nccc(Nc3cc(C4CC4)[nH]n3)n1)C2
Experimental result: 50 to 79%
//
Compound: CC(C)NCC12CC(C1)N(c1nccc(Nc3cc(C4CCCC4)[nH]n3)n1)C2
Experimental result: 20 to 49%

Input line: Dmax at 1 µM lookup needed for O=C1c2ccccc2C(=O)N1CC12CC(CN(c3nccc(Nc4cc(C5CCCC5)[nH]n4)n3)C1)C2 , thanks.
Output line: 80 to 100%

Input line: Dmax at 1 µM lookup needed for N#CC1(CN)CCCN(c2nccc(Nc3cc(C4CC4)[nH]n3)n2)C1 (stereo not shown) , thanks.
Output line: 50 to 79%

----------
Study system: MycC (Homo sapiens, UniProt P01106)
Construct: endogenous in cells; host or cells: L363
Assay remarks: Degradation of MycC protein in L363 cells, JESS/Western blot of lysates
Assay type: cell-based
Settings: L-363, 24 h, L-363 cells, 24 h, 6 μM; read-out: % Degradation of MycC (L-363) 24 h, 6 μM
Readout type: Dmax at 6 µM

Input line: Dmax at 6 µM lookup needed for CN1CC2(CCCN(c3nccc(Nc4cc(C5CCCC5)[nH]n4)n3)C2)C1 , thanks.
Output line: < 20%

Input line: Dmax at 6 µM lookup needed for CNCC12CCC(C1)N(c1nccc(Nc3cc(C4CC4)[nH]n3)n1)C2 (centres unmarked) , thanks.
Output line: 80 to 100%

Input line: Dmax at 6 µM lookup needed for CNCC12CCC(C1)N(c1nccc(Nc3cc(C4CCCC4)[nH]n3)n1)C2 (centres unmarked) , thanks.
Output line: 80 to 100%

Input line: Dmax at 6 µM lookup needed for CN1CC2(CCN(c3nccc(Nc4cc(C5CC5)[nH]n4)n3)CC2)C1 , thanks.
Output line: 80 to 100%

Input line: Dmax at 6 µM lookup needed for c1cc(Nc2cc(C3CCCC3)[nH]n2)nc(N2CCC(C3CNC3)C2)n1 (centres unmarked) , thanks.
Output line: 50 to 79%

----------
Study system: MycN (Homo sapiens, UniProt P04198)
Construct: endogenous in cells; host or cells: SK-N-BE(2)
Assay remarks: Degradation of MycN protein in SK-N-BE(2) cells, JESS/Western blot of lysates
Assay type: cell-based
Settings: SKNBE2, 24 h, SKNBE2 cells, 24 h, 0.5 μM; read-out: % Degradation of MycN (SKNBE2) 24 h, 0.5 μM
Listing of recorded Dmax at 0.5 µM by entry.

Molecule: CN(C)CC12CC(C1)N(c1nccc(Nc3cc(C4CC4)[nH]n3)n1)C2
Study system: MycN (Homo sapiens, UniProt P04198)
Dmax at 0.5 µM: < 20%

Molecule: CN1CC(C2CCN(c3nccc(Nc4cc(C5CCCC5)[nH]n4)n3)C2)C1 (centres unmarked)
Study system: MycN (Homo sapiens, UniProt P04198)
Dmax at 0.5 µM: 20 to 49%

Molecule: CN1CCC2(C1)CN(c1nccc(Nc3cc(C4CC4)[nH]n3)n1)C2
Study system: MycN (Homo sapiens, UniProt P04198)
Dmax at 0.5 µM: 20 to 49%

Molecule: NC[C@@H]1CN(c2nccc(Nc3cc(C4CCCC4)[nH]n3)n2)CCO1
Study system: MycN (Homo sapiens, UniProt P04198)
Dmax at 0.5 µM: < 20%

Would you kindly look at the next entry?
Input line: Checklist item: Dmax at 0.5 µM tested on MycN (Homo sapiens, UniProt P04198), entry CNCC12CC(C1)N(c1nccc(Nc3cc(C4CC4)[nH]n3)n1)C2 , value?
Output line: < 20%

----------
Study system: MycC (Homo sapiens)
Construct: endogenous in cells; host or cells: L363
Assay remarks: Degradation of MycC protein in L363 cells, JESS/Western blot of lysates
Format: cell-based
Settings: L-363, 24 h, read-out: % Degradation of MycC (L-363) 24 h, 6 μM
Protocol: For L363 cells (suspension), 1E6 cells were plated into each well of a 6 well plate. For SK-N-BE(2) cells (adherent), 5E5 cells were plated into each well of a 6 well dish. […] All compounds were diluted to 10 mM in DMSO. […] Once an appropriate lysate concentration and antibody concentration was determined, samples were screened in the JESS technology (Protein Simple, San Jose, CA—https://www.proteinsimple.com/jess.html). […]
Readout type: Dmax at 6 µM

Answered examples (6):
Compound: N#CC1(CN)CCCN(c2nccc(Nc3cc(C4CC4)[nH]n3)n2)C1 (stereo not shown) [Compound 119]
Dmax at 6 µM: 80 to 100%
--
Compound: c1cc(Nc2cc(C3CCCC3)[nH]n2)nc(N2CC3(CN4CCC4)CC2C3)n1 [Compound 76]
Dmax at 6 µM: 80 to 100%
--
Compound: COCCNCC12CC(C1)N(c1nccc(Nc3cc(C4CCCC4)[nH]n3)n1)C2 [Compound 67]
Dmax at 6 µM: 80 to 100%
--
Compound: NCC1CN(c2nccc(Nc3cc(C4CC4)[nH]n3)n2)CC(F)(F)C1 (stereo not shown) [Compound 121]
Dmax at 6 µM: 80 to 100%
--
Compound: O=C1c2ccccc2C(=O)N1CC12CC(CN(c3nccc(Nc4cc(C5CCCC5)[nH]n4)n3)C1)C2 [Compound 127]
Dmax at 6 µM: 80 to 100%
--
Compound: CC(C)NCC12CC(C1)N(c1nccc(Nc3cc(C4CCCC4)[nH]n3)n1)C2 [Compound 78]
Dmax at 6 µM: 80 to 100%

Would you kindly look at the next entry?
Input line: Checklist item: Dmax at 6 µM tested on MycC (Homo sapiens), entry NCC12CC(C1)N(c1nccc(Nc3cc(C4CC4)[nH]n3)n1)C2 [Compound 30] , value?
Output line: 80 to 100%

Recorded values, source patent US20250170130A1.
